For each of the compounds below, state its Euclidean distance.
System: OVCAR4
Assay: Euclidean distance of Cell Painting phenotypic profile (signed KS, 77 features) to DMSO centroid (dimensionless distance); 5 or 10 uM (library dependent); higher = stronger phenotypic change vs DMSO (phenoactivity)
Conditions: 48 h
Where a name gives a salt, the structure may show the parent alone.
Please reply with the value in numeric form only.

Query block: Look up Euclidean distance for this compound: CCOc1ccccc1OC(c1ccccc1)C1CNCCO1 (stereo not given) [Reboxetine mesylate]
Result block: 0.786

Query block: Could you do the same for Cn1nnc2c(C(N)=O)ncn2c1=O [Temozolomide] , please?
Result block: 0.619

Query block: Could you do the same for CC(C)c1c(C(=O)Nc2ccccc2)c(-c2ccccc2)c(-c2ccc(F)cc2)n1CC[C@@H](O)C[C@@H](O)CC(=O)O [Atorvastatin Calcium] , please?
Result block: 1.8

Query block: Could you do the same for COc1ccc(CN(CCN(C)C)c2ccccn2)cc1 [Pyrilamine Maleate] , please?
Result block: 1.5

Query block: Could you do the same for CCCCCOc1ccccc1/C(=C\SC)n1ccnc1 [Neticonazole Hydrochloride] , please?
Result block: 1.05
